- Test system: UO-31
- protocol: NCI tumour cell line growth inhibition, 48 h
Calls of active or inactive are those of the source. Rule as the data show it: active = GI50 up to about 1.1 µM and inactive = higher.
Field 'call' accepts y (active), n (inactive)

Illustrative cases are given below, each with its answer.
Record request — test call for O=S(=O)(c1ccccc1)C1(C2(S(=O)(=O)c3ccccc3)CCN=N2)CCN=N1 (centres undefined)
n

Field: outcome | Entry: CCOC(=O)/C(=C\c1ccc[nH]1)C(=O)c1ccccc1
n

Lab log entry: c1ccc([P+](CCC[P+](c2ccccc2)(c2ccccc2)c2ccccc2)(c2ccccc2)c2ccccc2)cc1 — outcome as called in the assay?
n

In this assay, the call recorded for Cc1ccc2nc(-c3ccc(-c4nc5ccc(C)cc5o4)c(O)c3)oc2c1 was what?
n

Recorded test outcome, item NC(=O)/C=C/c1c[nH]c2nccnc12
y

***
Look up the recorded call for NS(=O)(=O)c1nnc(NC(=S)NC(=O)Nc2ccc(Cl)c(Cl)c2)s1 in this test.
n

Recorded call for COC(=O)C1CC2CC1C1C2SC(F)(F)C1(F)F (centres undefined) ?
n

###

- Tested on: SW-620
- protocol: NCI tumour cell line growth inhibition, 48 h
Activity calls are given as the source filed them. Cut-off read from the data, not from the text of the source: active = GI50 up to about 1.1 µM and inactive = higher.
Give one outcome, nothing more. List: TRUE = active, FALSE = inactive

Recorded test call requested for COc1ccc(C23OCC(Cc4cc(OC)c(OC)cc42)C3CO)cc1OC (stereo not given)
FALSE

Identify the outcome logged in this assay for the molecule shown: c1ccc2c(c1)Nc1nc3nonc3nc1N2
FALSE

Hi, sorry to bother you, what did the test record for O=C(NN1C(=O)/C(=C/c2ccc(Cl)cc2)N=C1c1ccccc1)c1c(Cl)c(Cl)c(Cl)c(Cl)c1-c1nc2ccccc2[nH]1 ?
FALSE

Would you mind telling me which call this test gave Nc1ncnc2c1ncn2C1C=C(CO)C(O)C1O (stereo not given) ?
FALSE

Please let me know the test result on file for O=C(ON=c1c2ccccc2ccc2ccccc12)c1cc([N+](=O)[O-])cc([N+](=O)[O-])c1 .
FALSE

###

- System: NCI-H460
- protocol: NCI tumour cell line growth inhibition, 48 h
The source made the active and inactive calls. Rule as the data show it: active = GI50 up to about 1.1 µM and inactive = higher.
Write down the outcome that applies. Available outcomes: active, inactive

Lab log entry: CC1=C2C(=O)O[C@@H](c3ccoc3)[C@]2(C)CCC1 [FRAXINELLONE] — outcome as called in the assay?
inactive

Which outcome was entered for the molecule COc1cc(C2c3cc4c(cc3[C@@H](Nc3ccc(F)cc3)C3COC(=O)[C@H]23)OCO4)cc(OC)c1O (stereo partly specified) in this test?
active

Which result was noted for this molecule in the test: Cc1nc(O)nc2c1C(NCCCN(C)C)c1cc(Cl)ccc1N2 (stereo unspecified)
inactive

Kindly provide the recorded test outcome for the following molecule: NCc1ccccc1C1CSCSC1
inactive

GET /call?item= CCCCCCCCCCCCCCCC(=O)OCC1OC(OC)C(NC(=O)N(CCCl)N=O)C(O)C1O (stereo unspecified) returns the recorded outcome of this test.
inactive

---
Which outcome did this test record for the molecule CCOC(=O)Cc1cc(=O)oc2cc(O)ccc12 ?
inactive

What did this assay record as the result for COc1ccc(C23OCC(Cc4cc(OC)c(OC)cc42)C3CO)cc1OC (stereo unspecified) ?
inactive

Hi, do you know how O=Nn1c2ccccc2c2ccccc21 came out in this test?
inactive

###

- System: LOX IMVI
- protocol: NCI tumour cell line growth inhibition, 48 h
Calls of active or inactive are those of the source. No stated cut-off is given here; in the data, active = GI50 up to about 1.1 µM and inactive = higher.
// allowed return values: class 1 for active, class 0 for inactive

Which outcome was assigned to CSC1=N/C(=C\c2ccc(C)cc2)C(=O)N1CN1CCCCC1 in this test?
class 0

So what was the verdict on CCN(CC)C(=O)N[C@@H](CC(C)C)C(=O)NC in this test?
class 0

# lookup: test call for CC(C)OCC1CC(CC(=O)Nc2nncs2)C(=O)O1 (stereo unspecified)
class 0

Hi team, can someone confirm the assay call for NC(CCC(=O)O)C(=O)NC(Cc1ccc(N(CCCl)CCCl)cc1)C(=O)O (stereo unspecified) ?
class 0

What did this assay record as the result for COc1cccc(C=C2N=C(C)N(n3c(-c4ccccc4)nc4ccccc4c3=O)C2=O)c1 ?
class 0

For this molecule, state the assay outcome: CCOC(=O)c1cc([N+](=O)[O-])c(Sc2ncnc3nc[nH]c23)c([N+](=O)[O-])c1
class 1

Continuing:
Field: outcome | Entry: O=C(CCCCCCCCCCc1ccccc1)c1c(O)cccc1O
class 0

Assay outcome for O=C(CC1(O)C(=O)Nc2ccccc21)c1ccc2ccccc2c1 (stereo unspecified) : what was it?
class 0

Hey, what did the test say about COC(=O)c1c(CC(=O)OC(C)C)cc2n(c1=O)Cc1c-2nc2ccccc2c1OC ?
class 0

Could you check what this test reported for CC(C)C1OC2(C)OC(=N)C1(C#N)C(C#N)(C#N)C2C (stereo unspecified) ?
class 0

Assay result, entry Cc1cccc(NC(=O)Cc2nc3ccccc3s2)c1C — outcome?
class 0

###

- Tested on: HCT-15
Label Satisfied when GI50 is strictly below 30 µM; at or above that, label Not satisfied.

Consider the compound COC(=O)c1cccc2c1Oc1ccccc1S2 . Is its GI50 strictly less than 30 µM?
Not satisfied

Check if GI50 falls below 30 µM for Cc1ccccc1CN1CC2=C(CCN(Cc3ccccc3)C2=O)N2CCN=C12 .
Satisfied

Is GI50 strictly under 30 µM for the entry Cc1ccnc(NC(=S)Nc2ccccc2Cl)c1 ?
Not satisfied

Could you please tell me whether GI50 recorded for O=C(/C=C/c1ccccc1O)/C=C/c1ccccc1O is less than 30 µM?
Satisfied

Please determine if c1ccc(CNc2ccc3[nH]c4cnccc4c3c2)cc1 is below 30 µM in terms of GI50.
Satisfied

Next:
For this compound, is GI50 lower than 30 µM? O=C(O)CCSC(=O)Nc1cccc(F)c1
Not satisfied

###

- System: CCRF-CEM
- protocol: NCI tumour cell line growth inhibition, 48 h
Calls of active or inactive are those of the source. Cut-off read from the data, not from the text of the source: active = GI50 up to about 1.1 µM and inactive = higher.
Thanks in advance; please answer with one of these: active, inactive

Hi team, can someone confirm the assay call for CN(C)/C=C/c1nnnn1-c1ccc(I)cc1 ?
inactive

What call does the record list for CS/C1=C(\c2ccc(C)cc2)N(c2ccccc2)C(=O)C(=O)N(c2ccccc2)/C(c2ccc(C)cc2)=C(/SC)SS1 ?
inactive

Record lookup: outcome of this test for Cc1cc(C)cc(NC(N)=S)c1 ?
inactive

So what was the verdict on O=C1Oc2cc(O)cc(/C=C/c3ccc(O)cc3)c2[C@@]12c1c(O)cc(O)cc1OC2c1cccc(O)c1 (stereo partly specified) in this test?
inactive

More entries:
Give the logged outcome of this assay for the following molecule: O=S(=O)(c1ccccc1)C1(C2(S(=O)(=O)c3ccccc3)CCN=N2)CCN=N1 (stereo unspecified)
inactive

What outcome does the record of this test show for CCCCCCCCOCC(O)COC(=O)CCCCCCC (stereo unspecified) ?
inactive

Which result was noted for this molecule in the test: NS(=O)(=O)c1ccc(NC(=O)C2C(=O)C(=O)N(c3ccc(S(N)(=O)=O)cc3)C2=O)cc1 (stereo unspecified)
inactive

Call for entry O=C(ON=c1c2ccccc2ccc2ccccc12)c1cc([N+](=O)[O-])cc([N+](=O)[O-])c1 :
inactive

Assay result, entry COc1cc(C2C(Cl)C(=O)N2NC(=O)c2ccc(NC(C)=O)cc2)cc(Br)c1O (stereo unspecified) — outcome?
inactive

###

- Test system: Malme-3M
- protocol: NCI tumour cell line growth inhibition, 48 h
The source made the active and inactive calls. Cut-off read from the data, not from the text of the source: active = GI50 up to about 1.1 µM and inactive = higher.
Measured GI50, listed per entry for reference.

GI50 lookup needed for CSc1c(C#N)c(=O)n(N)c2[nH]nc(C)c12 , thanks.
> 100 µM (inactive)

Entry CC(N)(Cc1c[nH]c2ccccc12)C(=O)O (stereo unspecified) has what GI50?
> 100 µM (inactive)

Name the reported GI50 value associated with the compound O=C(/C=C/c1ccccc1O)/C=C/c1ccccc1O
2.11 µM (inactive)

Returns the measured GI50 for the input compound. Input: Cc1cc(C)nc(NS(=O)(=O)c2ccc(Nc3c4ccc(Cl)cc4nc4c(C(=O)Nc5ccc(S(=O)(=O)N=C(N)N)cc5)cccc34)cc2)n1
78.7 µM (inactive)

// GI50 lookup, key: CCOC(=O)Cc1cc(=O)oc2cc(O)ccc12
> 100 µM (inactive)

Further cases:
Find the recorded GI50 belonging to O=C(O)CSC1=NCCN1 and report it.
> 100 µM (inactive)

Fill in the blank: the reported GI50 of O=C1C[C@@]23CCC4(CC2CCC[C@H]3O1)OCCO4 (stereo partly specified) is ____.
> 100 µM (inactive)

Report GI50 for CC(O)=NC(Cc1ccc2ccccc2c1)C(O)=NC(Cc1ccc(Cl)cc1)C(O)=NC(Cc1c[nH]c2ccccc12)C(O)=NC(CO)C(O)=NC(Cc1ccc(O)cc1)C(O)=NC(CCCN=C(N)N)C(O)=NC(CC(C)C)C(O)=NC(CCCN=C(N)N)C(=O)N1CCCC1C(O)=NC(C)C(=N)O (stereo unspecified) please.
99.5 µM (inactive)

Which GI50 is reported for this compound? c1ccc2c(c1)Nc1nc3nonc3nc1N2
> 100 µM (inactive)

For the compound CC(C)(C)COC1C2(OCCO2)C2CCC1(C)C2(C)C (stereo unspecified) , what GI50 is on record?
29 µM (inactive)
